# System: Plasmodium falciparum
# EXPERIMENT_DESCRIPTION: Antimalarial activity after 48 hrs against multidrug-resistant Plasmodium falciparum Dd2 by [3H]hypoxanthine uptake
# Format: functional, organism-based
Overview of reported IC50 across a group of compounds:
Use µM as the unit, but write only the number.

Check out these entries, answers already filled in.
COMPOUND: CC(C)C[C@H](NC(=O)[C@@H](O)[C@H](N)Cc1ccccc1)C(=O)O.Cl [BESTATIN HYDROCHLORIDE]
ENDPOINT: IC50
UNIT_ABBREV: µM
RESULT_VALUE: 12
//
COMPOUND: N[C@H](CCc1ccccc1)P(=O)(O)C[C@@H](Cc1ccccc1)C(=O)O
ENDPOINT: IC50
UNIT_ABBREV: µM
RESULT_VALUE: 20

# ---- query compound ----
Given the compound N[C@H](CCc1ccccc1)P(=O)(O)C[C@@H](Cc1ccc(O)cc1)C(=O)O , what is its reported IC50?
13

These data points were gathered from ChEMBL document CHEMBL1138267.
